Biological target: MAGL (Homo sapiens, UniProt Q99685)
Sequence (Q99685 1-303): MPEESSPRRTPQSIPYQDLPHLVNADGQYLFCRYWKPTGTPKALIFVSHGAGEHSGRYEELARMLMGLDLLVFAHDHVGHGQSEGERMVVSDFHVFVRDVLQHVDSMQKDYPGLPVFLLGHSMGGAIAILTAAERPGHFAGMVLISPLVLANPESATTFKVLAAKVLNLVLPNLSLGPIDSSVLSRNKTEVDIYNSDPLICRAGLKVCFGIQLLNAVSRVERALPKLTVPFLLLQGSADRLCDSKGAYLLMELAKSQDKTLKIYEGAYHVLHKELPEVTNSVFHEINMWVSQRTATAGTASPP
Param label: returns yes (1) when IC50 < 60 nM, returns no (0) otherwise, including exact equality.

GIVEN SMILES	ANSWER LABEL
CC(C)(CF)n1cc(-c2ccc(C(=O)N3CCN(c4nc5nc(Cl)ccc5o4)CC3)cc2)nn1	yes (1)
Cc1nc(C(=O)N2CCN(c3nc4nc(Cl)ccc4o3)CC2)ccc1OCC1(C(F)(F)F)CC1	no (0)
CC(C)(C)c1nc(-c2ccc(C(=O)N3C4CCC3CN(c3nc5nc(Cl)ccc5o3)C4)cc2)no1	no (0)
Cc1cc(C(=O)N2CCN(c3nc4nc(Cl)ccc4o3)CC2)ccc1-c1cn(C(C)(C)C)nn1	yes (1)
Cc1ccc2oc(N3CCN(C(=O)c4cnc(-n5cnc(C(C)(C)C)n5)c(C)c4)CC3)nc2n1	no (0)
C[C@@H]1CN(C(=O)c2ccc(-c3cn(CC(C)(C)C)nn3)cc2)CCN1c1nc2nc(Cl)ccc2o1	yes (1)
Cc1cc(C(=O)N2CCN(c3nc4nc(Cl)ccc4o3)CC2)cnc1-c1cnn(CC(C)(C)C)c1	yes (1)

* * *

Sequence of the target: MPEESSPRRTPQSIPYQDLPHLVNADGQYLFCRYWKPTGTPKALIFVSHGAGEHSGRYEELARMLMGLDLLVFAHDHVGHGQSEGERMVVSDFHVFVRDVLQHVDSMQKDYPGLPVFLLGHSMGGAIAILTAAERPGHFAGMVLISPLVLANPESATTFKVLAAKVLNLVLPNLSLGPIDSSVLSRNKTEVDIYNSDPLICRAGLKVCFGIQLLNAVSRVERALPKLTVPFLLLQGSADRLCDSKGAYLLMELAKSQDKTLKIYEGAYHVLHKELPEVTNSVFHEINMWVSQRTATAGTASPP
pIC50: −log10 of the molar value.
MEASURED ENDPOINT: pIC50

GIVEN SMILES	TEST VALUE
Cc1ccc2oc(N3CCN(C(=O)N4CC(COc5ccc(F)cc5Cl)C4)CC3)nc2n1	5.91
COc1cc(C(=O)N2CCN(c3nc4nc(Cl)ccc4o3)CC2)cnc1-c1nnn(CC(C)(C)C)n1	7.21
CC(C)(C)Cn1cc(-c2ncc(C(=O)N3CCN(c4nc5nc(Cl)ccc5o4)CC3)cc2C(F)(F)F)cn1	7.96
COc1cc(C(=O)N2CCN(c3nc4nc(C)ccc4o3)CC2)ccc1-c1ncn(C(C)(C)C)n1	6.76
CC(C)(C#N)Cn1cc(-c2ccc(C(=O)N3CCN(c4nc5nc(Cl)ccc5o4)CC3)cc2)nn1	7.46
CC(C)(C)Cn1ncc(-c2ccc(C(=O)N3CCN(c4nc5nc(Cl)ccc5o4)CC3)cc2C#N)n1	8.00
Cc1cc(C(=O)N2CCN(c3nc4nc(Cl)ccc4o3)CC2)cnc1OC[C@@H](F)CF	6.15

Reference for the values: patent US20220135591A1
